Provide the recorded % Inhibition for the entries that follow.
tested on: P. falciparum stage V gametocytes; parameters: BacTiter-Glo ATP luminescence viability of purified stage V gametocytes in 384-well plates, per cent inhibition versus DMSO; details: 48 h, 5 µM; inhibitor
Screen size: about 13,000 compounds; about 3,200 (25%) showed an effect of 50% or more. Some of the results follow.
Give bare numbers, in %.

Solved entries (count: 5):
Qu. Which % Inhibition is listed for COc1ccc2nccc([C@@H](O)CN3CCC(NCCOc4cc(F)cc(F)c4)CC3)c2c1 ?
Ans. 10.94

Qu. Which % Inhibition is listed for COc1ccc(Nc2cc(C)nc(Nc3ccc(NC(C)=O)cc3)n2)cc1 ?
Ans. -41.12

Qu. Which % Inhibition is listed for COc1cccc(Nc2nc(C)cc(NC3CCCC3)n2)c1 ?
Ans. 31.06

Qu. Which % Inhibition is listed for COc1ccc2nccc([C@@H](O)CN3CCC(NCCOc4ccccc4C(F)(F)F)CC3)c2c1 ?
Ans. 37.87

Qu. Which % Inhibition is listed for COc1ccc2nccc([C@@H](O)CN3CCC(NCCOc4ccc(F)cc4Cl)CC3)c2c1 ?
Ans. 20.67

Each molecule below has a recorded value; state its % Inhibition.
1. Cc1cccc2nc(-c3ccc(-c4cccc(NC(=O)Nc5ccsc5)c4)s3)[nH]c12
2. OC1(Cc2ccccc2)CCN(Cc2cccc(-c3c[nH]c4nc(NC5CCCC5)ncc34)c2)CC1
3. COC(=O)c1cccc(CNCc2ccc(-c3ccc(-c4nc5ccc(F)cc5[nH]4)s3)cc2)c1

Ans.
1. 8.037
2. -59.82
3. -33.43

----------
tested on: P. falciparum stage V gametocytes; parameters: BacTiter-Glo ATP luminescence viability of purified stage V gametocytes in 384-well plates, per cent inhibition versus DMSO; conditions: 48 h, 5 µM; inhibitor
In all, about 13,000 compounds went through this assay and about 3,200 (25%) showed an effect of 50% or more. Some of the results follow.
Provide the recorded % Inhibition for the entries that follow.
One number for each entry, in %.

Qu. Which % Inhibition is listed for Cc1ccc(NC(=O)c2ccc(CN3CCCN(Cc4cccc(C#N)c4)CC3)cc2)cc1F ?
Ans. -18.71

Each compound below has a recorded value; state its % Inhibition.
1. O=S(=O)(NCCN1CCCC1)c1ccc(-c2ccc(CNC3Cc4ccccc4C3)cc2)cc1
2. O=S(=O)(NCCN1CCCC1)c1cccc(-c2ccc(CNC3Cc4ccccc4C3)cc2)c1
3. O=C(/C=C/c1ccc(Cl)c(Cl)c1)NCCCCCN1CCC(NC(=O)NC2CCCCC2)CC1

Ans.
1: 60.05; 2: 96.68; 3: -41.72

----------
test system: P. falciparum stage V gametocytes; set-up: BacTiter-Glo ATP luminescence viability of purified stage V gametocytes in 384-well plates, per cent inhibition versus DMSO; settings: 48 h, 5 µM; inhibitor
Out of some 13,000 compounds screened, about 3,200 (25%) showed an effect of 50% or more. The list shows a part of the results.
Provide the recorded % Inhibition for the entries that follow.
Answers are plain numbers, in %.

Solved entries (count: 4):
Qu. Which % Inhibition is listed for COc1cccc(CCc2c(CCNCCCCCCNCCc3ccccc3)ccc(OC)c2OC)c1 ?
Ans. 111.5

Qu. Which % Inhibition is listed for O=C(NC1CCC(CN2CCC(c3c[nH]c4ccccc34)CC2)CC1)c1cc2ccccc2o1 (centres unmarked) ?
Ans. 94.95

Qu. Which % Inhibition is listed for CCc1c(CCNCCCCCNCCc2ccc(OC)c(OC)c2CC)ccc(OC)c1OC ?
Ans. 110.1

Qu. Which % Inhibition is listed for Cc1ccc(C(=O)Cn2nc(-c3ccc(C)c(S(=O)(=O)N4CCCC4)c3)ccc2=O)cc1 ?
Ans. -26.21

Each compound below has a recorded value; state its % Inhibition.
1. CCC(=O)c1cc(C(=O)NCCc2cccc(OC)c2)ccc1OC
2. Cn1nc(C(F)(F)F)cc1-c1ccc(C(=O)NC2CCC(CN3CCC(c4c[nH]c5ccccc45)CC3)CC2)s1 (centres unmarked)
3. CCc1c(CCNCCc2cccc(CCNCCc3ccc(OC)c(OC)c3CC)c2)ccc(OC)c1OC
4. Cc1ccccc1C1CCN(C2CCC(NC(=O)c3ccc(-c4cc(C(F)(F)F)nn4C)s3)CC2)CC1 (centres unmarked)

Ans.
1. 9.268
2. 118.2
3. 108.6
4. -22.15
